experimentalTarget: Chk1 (Homo sapiens)
Construct: purchased Upstate Biotechnology
Sequence (O14757 whole entry): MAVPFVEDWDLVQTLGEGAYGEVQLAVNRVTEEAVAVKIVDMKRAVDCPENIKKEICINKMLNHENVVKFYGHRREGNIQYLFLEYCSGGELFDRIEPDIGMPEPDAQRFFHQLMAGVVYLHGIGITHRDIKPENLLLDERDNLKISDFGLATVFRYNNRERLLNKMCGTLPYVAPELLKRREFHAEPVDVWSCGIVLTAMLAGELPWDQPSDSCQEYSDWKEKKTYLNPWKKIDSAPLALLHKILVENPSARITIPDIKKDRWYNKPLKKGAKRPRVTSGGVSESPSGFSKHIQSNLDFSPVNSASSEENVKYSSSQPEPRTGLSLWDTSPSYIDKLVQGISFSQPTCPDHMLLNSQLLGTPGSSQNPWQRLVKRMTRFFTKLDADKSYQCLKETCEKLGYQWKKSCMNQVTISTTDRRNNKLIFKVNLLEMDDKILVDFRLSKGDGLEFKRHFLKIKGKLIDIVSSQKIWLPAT
experimentSummary: Chk1 kinase assay: incorporation of γ-33P ATP into immobilized myelin basic protein
Assay type: biochemical
measurementSetup: read-out: Chk1 IC50
pIC50: −log10 of the molar value.
attributeMeasured: pIC50

Input line: Form entry - test system: Chk1 (Homo sapiens); read-out: pIC50; compound: CNC(=O)c1nc(-c2cncnc2)cnc1N
Output line: ≤ 5.00

Input line: Form entry - test system: Chk1 (Homo sapiens); read-out: pIC50; compound: CNC(=O)c1nc(-c2cccc(C(=O)N[C@H](C)c3ccc(OC)cc3)c2)cnc1N
Output line: 5.00 to 6.00

Input line: Form entry - test system: Chk1 (Homo sapiens); read-out: pIC50; compound: CNC(=O)c1nc(-c2cccc(NC(=O)c3ccc(C#N)cc3)c2)cnc1N
Output line: 6.00 to 7.30

Input line: Form entry - test system: Chk1 (Homo sapiens); read-out: pIC50; compound: CNC(=O)c1nc(-c2cccc(NC(=O)OC(C)(C)C)c2)cnc1N
Output line: 5.00 to 6.00

Input line: Form entry - test system: Chk1 (Homo sapiens); read-out: pIC50; compound: CNC(=O)c1nc(-c2cccc(S(=O)(=O)NCc3ccccc3)c2)cnc1N
Output line: 5.00 to 6.00

Input line: Form entry - test system: Chk1 (Homo sapiens); read-out: pIC50; compound: CNC(=O)c1nc(-c2cccc(C(=O)N[C@@H]3CCCc4ccccc43)c2)cnc1N
Output line: 5.00 to 6.00

Input line: Form entry - test system: Chk1 (Homo sapiens); read-out: pIC50; compound: CNC(=O)c1nc(-c2ccc(NS(C)(=O)=O)cc2)cnc1N
Output line: 5.00 to 6.00

Input line: Form entry - test system: Chk1 (Homo sapiens); read-out: pIC50; compound: CNC(=O)c1nc(-c2cccc(C(=O)O)c2)cnc1N
Output line: ≤ 5.00

Input line: Form entry - test system: Chk1 (Homo sapiens); read-out: pIC50; compound: CNC(=O)c1nc(-c2cccc(C(=O)NCC3CCCC3)c2)cnc1N
Output line: 6.00 to 7.30

Input line: Form entry - test system: Chk1 (Homo sapiens); read-out: pIC50; compound: CNC(=O)c1nc(-c2cccc(C(=O)N[C@H]3c4ccccc4C[C@H]3O)c2)cnc1N
Output line: 5.00 to 6.00

Input line: Form entry - test system: Chk1 (Homo sapiens); read-out: pIC50; compound: CNC(=O)c1nc(-c2cccc(C(=O)NCC3CCNC3)c2)cnc1N (stereo not drawn)
Output line: 6.00 to 7.30

Input line: Form entry - test system: Chk1 (Homo sapiens); read-out: pIC50; compound: C/N=C(\C)c1cccc(-c2cnc(N)c(C(=O)NC)n2)c1
Output line: 5.00 to 6.00

Input line: Form entry - test system: Chk1 (Homo sapiens); read-out: pIC50; compound: CNC(=O)c1nc(-c2ccc(Cl)c(C(=O)NCc3ccccc3)c2)cnc1N
Output line: 6.00 to 7.30

Input line: Form entry - test system: Chk1 (Homo sapiens); read-out: pIC50; compound: CNC(=O)c1nc(-c2cccc(C(=O)NCc3ccccc3OCCN3CCOCC3)c2)cnc1N
Output line: 6.00 to 7.30

Input line: Form entry - test system: Chk1 (Homo sapiens); read-out: pIC50; compound: CNC(=O)c1nc(-c2cccc(C(=O)NCc3ccccn3)c2)cnc1N
Output line: 6.00 to 7.30

Input line: Form entry - test system: Chk1 (Homo sapiens); read-out: pIC50; compound: CCN(Cc1ccncc1)C(=O)c1cccc(-c2cnc(N)c(C(=O)NC)n2)c1
Output line: 5.00 to 6.00

Input line: Form entry - test system: Chk1 (Homo sapiens); read-out: pIC50; compound: CNC(=O)c1nc(-c2cccc(C(=O)NCc3c(F)ccc(F)c3Cl)c2)cnc1N
Output line: 6.00 to 7.30

Input line: Form entry - test system: Chk1 (Homo sapiens); read-out: pIC50; compound: CNC(=O)c1nc(-c2cccc(C(=O)NCc3c(C)cccc3Cl)c2)cnc1N
Output line: 6.00 to 7.30
